Assay: endothelial E-selectin upregulation by compounds – imaging, HUVEC, cherry-picked samples, dose response (AID 977605);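 further: signal is the share of imaged cells scored positive for E-selectin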
Details: HUVEC E-selectin immunostaining, at 19.5 µM (top of the series), percent of TNF-alpha response over vehicle
// reported activation per item
recorded-endpoint: activation (%)

molecule=C[C@@H]1CN([C@@H](C)CO)C(=O)Cc2cc(NC(=O)c3ccncc3)ccc2O[C@H]1CN(C)Cc1ccc(Oc2ccccc2)cc1 measure_unit=% obs_value=0.031
molecule=CCC(=O)N(C)C[C@H]1Oc2cc(C3=CCCC3)ccc2S(=O)(=O)N([C@@H](C)CO)C[C@@H]1C measure_unit=% obs_value=-0.074
molecule=C[C@H](CO)N1C[C@H](C)[C@H](CN(C)C(=O)Nc2ccccc2)Oc2ccc(NS(C)(=O)=O)cc2C1=O measure_unit=% obs_value=-0.163
molecule=C[C@@H]1CN([C@H](C)CO)C(=O)c2cc(NC(=O)CCN3CCOCC3)ccc2O[C@@H]1CN(C)Cc1ccncc1 measure_unit=% obs_value=-0.14
molecule=Cc1cccc(NS(=O)(=O)c2csc(C(N)=O)c2)c1C measure_unit=% obs_value=0.111
molecule="CC(C)C(c1nnnn1C1CCCCC1)N1CCN(C(=O)c2ccco2)CC1 (stereo not drawn)" measure_unit=% obs_value=-0.112
molecule=CC(C)NC(=O)N(C)C[C@@H]1Oc2c(NC(=O)c3ccc(-c4nccs4)cc3)cccc2C(=O)N([C@H](C)CO)C[C@H]1C measure_unit=% obs_value=-0.093
molecule=COc1ccc(NC(=O)N(C)C[C@H]2Oc3ccc(NC(=O)c4ccncc4)cc3CC(=O)N([C@H](C)CO)C[C@@H]2C)cc1 measure_unit=% obs_value=-0.048

====

Experiment: endothelial E-selectin upregulation by compounds – imaging, HUVEC, cherry-picked samples, dose response (AID 977605);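 further: signal is the share of imaged cells scored positive for E-selectin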
Details: HUVEC E-selectin immunostaining, at 19.5 µM (top of the series), percent of TNF-alpha response over vehicle
Calls of active or inactive are those of the source.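 Rule for the calls: active = fitted curve reaches 40% activation below the top valid tested dose, in every test run; inconclusive = test runs disagree on the call; inactive = the rest, including effects opposite to the expected direction.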
recorded-endpoint: activation

compound=Cc1ccc(COc2ccc(/C=N/O)cc2)cc1 obs_value="-0.083% (inactive)"
compound=C[C@@H]1CN([C@H](C)CO)C(=O)c2cccc(NS(=O)(=O)c3cn(C)cn3)c2O[C@@H]1CN(C)Cc1ccc(Cl)c(Cl)c1 obs_value="0.02% (inactive)"
compound="CCOc1cc(N2CCOCC2)c(OCC)cc1NC(=O)c1ccc(S(=O)(=O)N2CC(C)OC(C)C2)cc1 (stereo not given)" obs_value="-0.215% (inactive)"
compound=COC(=O)C[C@@H]1CC[C@@H]2[C@H](COc3ccc(NC(=O)Nc4cccc(F)c4)cc3C(=O)N2C)O1 obs_value="-0.161% (inactive)"
compound=C[C@H](CO)N1C[C@H](C)[C@@H](CN(C)S(=O)(=O)c2cccs2)Oc2ccc(NS(=O)(=O)c3ccc(Cl)cc3)cc2CC1=O obs_value="0.125% (inactive)"
compound=CC(C)NC(=O)N(C)C[C@H]1Oc2c(NC(=O)c3ccc(-c4nccs4)cc3)cccc2C(=O)N([C@@H](C)CO)C[C@H]1C obs_value="2.24% (inactive)"
compound=COc1ccc(S(=O)(=O)Nc2ccc3c(c2)C(=O)N([C@H](C)CO)C[C@H](C)[C@@H](CN(C)C(=O)Nc2cccc4ccccc24)O3)cc1 obs_value="0.023% (inactive)"
compound=COc1ccc(S(=O)(=O)Nc2ccc3c(c2)C(=O)N([C@@H](C)CO)C[C@@H](C)[C@@H](CN(C)Cc2ccc(C(=O)Nc4ccccc4N)cc2)O3)cc1 obs_value="1.66% (inactive)"
compound=COc1ccc(OC)c(NC(=O)c2csc(Cl)c2OC)c1 obs_value="2.39% (inactive)"
compound=C[C@@H]1CN([C@H](C)CO)C(=O)Cc2cc(NS(C)(=O)=O)ccc2O[C@@H]1CN(C)S(=O)(=O)c1cn(C)cn1 obs_value="13.4% (inactive)"
compound=C/C(=N\NC(=O)C1CC1)c1ccc(Cl)cc1 obs_value="-0.246% (inactive)"
compound=COc1ccccc1N1CCN(C(=O)c2ccco2)CC1 obs_value="1.75% (inactive)"
compound=CCOc1ccc2ncc(S(=O)(=O)c3ccc(C)cc3)c(N3CCC4(CC3)OCCO4)c2c1 obs_value="-0.045% (inactive)"
compound="O=S1(=O)CC(N2CCN(Cc3ccccc3F)CC2)CN1Cc1cn(Cc2ccccc2)nn1 (stereo not given)" obs_value="0.129% (inactive)"
compound=NC(=O)C1CCN(c2nc(-c3ccccc3-c3ccccc3)cs2)CC1 obs_value="0.136% (inactive)"
compound=COc1ccc(S(=O)(=O)Nc2cccc3c2O[C@H](CN(C)C(=O)Nc2c(C)noc2C)[C@H](C)CN([C@@H](C)CO)C3=O)cc1 obs_value="-0.052% (inactive)"
compound="CC1CN(S(=O)(=O)c2ccc(F)cc2)C(C)N1C(=O)N1CCOCC1 (stereo not given)" obs_value="-0.215% (inactive)"
compound=C[C@H]1CN([C@@H](C)CO)C(=O)c2cc(NC(=O)CCN3CCOCC3)ccc2O[C@@H]1CN(C)S(=O)(=O)c1ccc(Cl)cc1 obs_value="-0.142% (inactive)"
compound=CC1=NC(C)(C)Cc2c(C)cccc21 obs_value="-0.148% (inactive)"
compound=Cc1ccc(NC(=O)CN2CCOCC2)cc1Cl obs_value="0.043% (inactive)"
compound=COc1ccc(CN(C)C[C@H]2Oc3c(NC(=O)c4cnccn4)cccc3C(=O)N([C@H](C)CO)C[C@@H]2C)cc1 obs_value="0.248% (inactive)"
compound=C=CCn1c(=N)n(CC(=O)c2ccc(Br)s2)c2ccccc21 obs_value="1.81% (inactive)"
compound=CCOC(=O)[C@]12CCCC=C1N(Cc1ccccc1)C(=O)[C@H](CC(=O)NCc1cccc3ccccc13)C2 obs_value="0.13% (inactive)"
compound=C[C@@H]1CN([C@H](C)CO)C(=O)c2cccc(NC(=O)Nc3ccc(F)cc3)c2O[C@H]1CN(C)Cc1ccncc1 obs_value="-0.015% (inactive)"
compound=CCOC(=O)c1cccc(NC(=O)c2cc(C)nn2-c2ccccc2)c1 obs_value="0.657% (inactive)"
compound=COc1ccc(CN(C)C[C@@H]2Oc3ccc(NC(=O)Nc4ccc(F)cc4)cc3CC(=O)N([C@@H](C)CO)C[C@@H]2C)cc1 obs_value="0.025% (inactive)"
compound=C[C@@H]1CN([C@@H](C)CO)C(=O)Cc2cc(NS(=O)(=O)c3ccc(F)cc3)ccc2O[C@H]1CN(C)S(=O)(=O)c1ccc(Cl)cc1 obs_value="-0.127% (inactive)"
compound=COc1ccc2[nH]c(=O)c(CN(c3ccccc3)S(=O)(=O)c3ccccc3)cc2c1 obs_value="3% (inactive)"
compound=C[C@@H]1CN([C@@H](C)CO)C(=O)c2cc(N(C)C)ccc2O[C@@H]1CN(C)C(=O)Nc1cccc2ccccc12 obs_value="-0.224% (inactive)"
compound=CCc1cc(C(=O)Nc2nc(-c3ccccn3)cs2)sc1C obs_value="0.665% (inactive)"
compound=COC(=O)c1ccc(CNC(=O)c2ccc(OC)c(S(=O)(=O)NC3CCCC3)c2)cc1 obs_value="-0.105% (inactive)"
compound=C[C@@H]1CN([C@@H](C)CO)C(=O)c2cc(NC(=O)Cc3ccccc3)ccc2O[C@@H]1CN(C)Cc1ccc(Cl)c(Cl)c1 obs_value="0.002% (inactive)"
compound=O=C(Nc1cccc(C(F)(F)F)c1)c1cc[n+]([O-])cc1 obs_value="0.066% (inactive)"
compound="O=C(C1CCCN(c2nnc(-n3cccc3)s2)C1)N1CCN(c2ccccc2)CC1 (stereo not given)" obs_value="0.14% (inactive)"
compound=COc1cccc(CNC(=O)CN2C(=O)COc3ccc(S(=O)(=O)N4CCCCCC4)cc32)c1 obs_value="-0.081% (inactive)"
